assay: qHTS of pediatric cancer cell lines to identify multiple opportunities for drug repurposing: Primary screen for Rh30 cells (AID 1347107); conditions: Rh30 rhabdomyosarcoma viability, CellTiter-Glo luminescence, 48 h; series mostly up to 46 µM; further: nearly all actives have a fitted effect of over 75% in size
Records with an inconclusive call do not appear. Activity calls are given as the source filed them. The call rests on the fitted dose curve; in most records, active means well fitted cell-killing curve with a large enough effect; inconclusive means small, poorly fitted or top-dose-only effect; inactive means no such curve, though single readings can be large or run the other way.
Respond using exactly one of the listed classes: 1.0 for active, 0.0 for inactive

Previously resolved entries follow.
COC(=O)C1=C(C)NC(C)=C(C(=O)OCCN2CCN(C(c3ccccc3)c3ccccc3)CC2)C1c1cccc([N+](=O)[O-])c1 (configuration not stated) :: 0.0
COc1ccc(C(=O)CC2(O)C(=O)Nc3c(Cl)ccc(Cl)c32)cc1 (configuration not stated) :: 0.0
c1nc2nc(Nc3ccc(N4CCOCC4)cc3)nc(NC3CCCCC3)c2[nH]1 :: 1.0
Cc1cc(Nc2cc(NC(=O)c3c(Cl)cccc3Cl)ccn2)nc(N)n1 :: 0.0

stdin: Test call, this compound: `Nc1nc(Nc2ccc(S(N)(=O)=O)cc2)nn1C(=O)c1c(F)cccc1F`
stdout: 0.0

stdin: How did this test come out for `C1Cc2[nH]nc(-c3nn[nH]n3)c2C1` ?
stdout: 0.0

stdin: Kindly provide the recorded test outcome for the following compound: `C=C1C(=CC=C2CCC[C@]3(C)[C@@H]([C@H](C)C=C[C@H](C)C(C)C)CC[C@@H]23)C[C@@H](O)C[C@@H]1O`
stdout: 1.0

stdin: Any idea what this test logged for `CN(C)Cc1c(C(=O)NCCOc2ccc(C(=O)NO)cc2)oc2ccccc12` ?
stdout: 1.0

stdin: Would you mind telling me which call this test gave CC1COC2(CCN(c3nc(=O)c4cc(C(F)(F)F)cc([N+](=O)[O-])c4s3)CC2)O1 (configuration not stated) ?
stdout: 0.0

stdin: Hello, I am checking results. What call was entered for `CN1CCC(CNc2ccc3ncc(-c4cccc(OC(F)(F)F)c4)n3n2)CC1` ?
stdout: 1.0

Value source: PubChem BioAssay (NCATS)
